Test: probe aWnt5a binding to arrayed compounds – biochemical, biotinylated probe, 635/667 nm fluorescence, primary screen (AID 1113);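 note: score merges 667 nm fluorescence intensity with signal-to-noise per printed feature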
Details: small-molecule microarray, higher = more signal
Parameter threshold = -0.1. Response is criterion met when composite z-score meets or exceeds it, else criterion not met.

Is reported composite z-score greater than or equal to -0.1 here: CCOC(=O)C[C@H]1[C@H](OC(=O)c2cc3ccccc3oc2=O)[C@@H](NC(=O)c2ccc3ccccc3n2)c2cc(OCCCO)ccc2N1C(=O)Cc1ccc(OC)cc1
criterion met

Is composite z-score for COc1cc(NN2C(C(O)c3ccc(N(C)C)cc3)C=CC3C(=O)N(c4ccccc4)C(=O)C32)cc(OC)c1OC (configuration not stated) at or above -0.1?
criterion met

Could you verify whether the entry CC(C)(C)OC(=O)CC[C@@]1(C(=O)NCC(O)CO)N=C(c2ccc(OCCCO)cc2)O[C@@H]1c1ccccc1CN=[N+]=[N-] (some centres not stated) shows composite z-score of no less than -0.1?
criterion not met

Does Cc1ccc(S[C@]2(C(=O)NCc3ccccc3)CC(=O)N(C3CCCCC3)[C@@H]2c2ccc(CO)cc2I)cc1 have a reported composite z-score of at least -0.1?
criterion met

Given the entry CCCC=C(CCC)[C@@H](NS(=O)(=O)CC12CCC(CC1=O)C2(C)C)c1ccc(C(=O)OC)cc1 (some centres not stated) , answer whether its composite z-score meets or surpasses -0.1.
criterion not met

Textbook exercise: given the entry NC(=O)[C@@]1(Cc2ccccc2)COC(c2ccc(OCCCO)cc2)=N1 , state whether its composite z-score is greater than or equal to -0.1.
criterion met

Hi team, for CC(=O)N1CC2(CC2)CC1c1ccccc1 (configuration not stated) , is the recorded composite z-score at or above -0.1?
criterion met

For this compound, is measured composite z-score -0.1 or higher? Cc1ccc(S[C@]2(C(=O)O)CC(=O)N(C3CCCCC3)[C@@H]2c2ccc(CO)cc2I)cc1
criterion not met

Dear colleague, could you confirm whether C#CCN(Cc1ccccc1Br)[C@H](/C=C/c1ccccc1)[C@@H](O)Cc1ccccc1 has composite z-score at or above -0.1?
criterion not met

# bool: composite z-score of COc1cc(NN2C(C(O)c3cc(OC)c(OC)c(OC)c3)C=CC3C(=O)N(C)C(=O)C32)cc(OC)c1OC (configuration not stated) >= -0.1
criterion met

Test whether the compound CO[C@H]1O[C@H](CO)[C@@H](OC(=O)Nc2ccc(Br)cc2)[C@@H]2OC(=O)[C@@H](Cc3ccccc3)C/C=C/C[C@H](Cc3ccccc3)C(=O)O[C@@H]12 records composite z-score of -0.1 or higher.
criterion met

Does the reported composite z-score for COC(=O)[C@@H]1N=C(c2ccc(OCCCO)cc2)O[C@@H]1C fall at or above the -0.1 mark?
criterion not met

Hi team, for O=C(O)[C@@H]1[C@@H]2C(=O)N(c3ccccc3)C(=O)[C@@H]2C[C@@H]1Sc1ccccc1 , is the recorded composite z-score at or above -0.1?
criterion met

Check if composite z-score >= -0.1 (inclusive). Item: COc1ccc(CCNC(=O)[C@@H]2c3ccccc3C(=O)N(C3CCCCC3)[C@H]2c2ccc(CO)cc2)cc1
criterion met

I'd appreciate it if you could say whether CCCC1(C(=O)OC)C=C2C(=C(C)C(=O)C2C)CN1 (configuration not stated) has composite z-score at least equal to -0.1.
criterion met

// inclusive: composite z-score at least -0.1? input: COc1cccc(C)c1NC(=O)O[C@H]1[C@H](OC(=O)Nc2ccc3c(c2)OCO3)[C@@H](OC(=O)Nc2ccc3c(c2)OCO3)[C@@H](OC)O[C@@H]1CO
criterion met

---

Target: NADPH oxidase 2 (Homo sapiens)
Test: compounds shifting NOX2 Amplex Red fluorescence – cell-based, HEK293-NOX2, PMA-stimulated, NOX inhibitor project, primary screen (AID 1159); note: test concentration not given here
Settings: 45 min, higher = more signal, called active from +8 up or from −8 down
Activity calls are given as the source filed them.
Could you please report measured z-score for the items listed next?

Provide measured z-score value, entry: C#CCN([C@@H](Cc1ccccc1)C(=O)OC)[C@@H](/C=C/C1CC1)[C@H](O)Cc1ccccc1
-0.284 (inactive)

Given COc1cc(NN2C(C(O)c3ccco3)C=CC3C(=O)N(C)C(=O)C32)cc(OC)c1OC (stereo not given) , respond with its z-score.
-1.95 (inactive)

Please give the documented z-score of CCCC1(C(=O)OC)C=C2C(=C(C)C(=O)C2C)CN1 (stereo not given)
0.43 (inactive)

Kindly indicate its recorded z-score. Item: O=C1N(Cc2ccccc2)c2ccccc2C[C@]12N=C(c1ccc(OCCCO)cc1)O[C@@H]2c1ccccc1
-0.73 (inactive)

Output z-score of CS(=O)(=O)CCOC(=O)C1=CC(CCCO)=CC(c2ccc(CN3CCCC3)cc2)N(Cc2sc3ccccc3c2Cl)C=C1C(=O)OCCS(C)(=O)=O (stereo not given)
0.44 (inactive)

Determine from records and report z-score for CC(C)N1C(=O)C[C@@](C(=O)O)(c2ccc([N+](=O)[O-])cc2)[C@H]1c1ccc(CO)cc1
-2.39 (inactive)

Specify z-score for C=CC[C@@]1(C(=O)NCCCOC)N=C(c2ccc(OCCCO)cc2)O[C@@H]1c1ccccc1 and stop.
-0.393 (inactive)

Please supply the value of reported z-score for the item C=CCC(OC(C)=O)[C@@H]1[C@@H](N(Cc2cccc3ccccc23)C(=O)Cc2ccc(F)cc2)c2cc(OCCCO)ccc2N1C(=O)c1ccc2ccccc2c1 (stereo not given in full)
-1.5 (inactive)

Please supply the value of reported z-score for the item CCCN1C(=O)[C@@]2(Cc3ccccc31)N=C(c1ccc(OCCCO)cc1)O[C@H]2c1ccccc1
-0.135 (inactive)

Given the compound COC(=O)[C@@]1(Cc2ccc(OC)cc2)[C@H]2c3cc(C(=O)N(C)C)n(Cc4ccc(C)o4)c3C[C@H]2CN1C(=O)c1ccccc1 , write its reported z-score.
-0.351 (inactive)

Give recorded z-score. CCOC(=O)C1=C[C@@H](C(C)(C)C)N(S(=O)(=O)c2ccc(C)cc2)[C@H]1c1cccc2ccccc12
-0.527 (inactive)

Provide only the value of recorded z-score for NCCCCCNC(=O)[C@H]1C[C@H]2C(=O)N3CCC[C@H]3C(=O)N2[C@H]1c1cccc(OCCO)c1
2.6 (inactive)

Input CC(C)(C)OC(=O)CC[C@@]1(C(=O)NCC(O)CO)N=C(c2ccc(OCCCO)cc2)O[C@@H]1c1ccccc1CN=[N+]=[N-] (stereo not given in full) , output reported z-score.
1.18 (inactive)

Find the measured z-score of C=CCC(OC(C)=O)[C@@H]1[C@@H](N(Cc2ccc(-c3cccc(C(F)(F)F)c3)o2)C(=O)c2ccc(-c3ccccc3)cc2)c2cc(OCCCO)ccc2N1C(=O)Cc1ccc2ccccc2c1 (stereo not given in full) and report it.
-1.34 (inactive)

Quickly give me recorded z-score for CC(C)C(CO)N1C(=O)[C@@H]2C3C(=O)OCCC/C=C\[C@H]3OC23C=CCN(c2ccc4ccccc4c2)C(=O)[C@@H]13 (stereo not given in full)
1.77 (inactive)

---

For each of the molecules below, state its composite z-score.
Molecular target: Torsin-1A (Homo sapiens)
Test: TOR1A wild-type binding on microarray – cell lysate, small-molecule microarray, lysate, 635/667 nm, primary screen (AID 1149)
Conditions: COS7 hTOR1A-WT lysate, 635 nm fluorescence, higher = more signal

Retrieve composite z-score measured for CC(c1ccccc1)C(O)C1C=CC2C(=O)N(C)C(=O)C2N1Nc1ccccc1 (configuration not stated) and print it.
0.112

Input CC(C)C(CO)N1C(=O)[C@@H]2C3C(=O)OCCC/C=C\[C@H]3OC23C=CCN(Cn2nnc4ccccc42)C(=O)[C@@H]13 (some centres not stated) , output reported composite z-score.
-1.7

Dear colleague, please send me the reported composite z-score for CCOC(=O)C[C@H]1[C@H](OC(=O)c2ccccc2-c2ccccc2)[C@@H](NC(=O)c2ccc3ccccc3n2)c2cc(OCCCO)ccc2N1C(=O)Cc1ccc(OC)cc1 when you can.
0.253

For the molecule C[N+](C)(C)CCCCCCNC(=O)[C@@H]1C[C@@H]2C(=O)N3CCC[C@H]3C(=O)N2[C@@H]1c1ccc(O)cc1 , give its measured composite z-score value.
1.25

Identify measured composite z-score corresponding to CC[C@@H]1O[Si](C(C)C)(C(C)C)c2c1cc(-c1cc(C)c(OC)c(C)c1)nc2-c1ccc(Oc2ccccc2)cc1
-0.851

Retrieve composite z-score measured for CO[C@H]1O[C@H](CO)[C@@H](OC(=O)Nc2ccc3c(c2)OCO3)[C@H](OC(=O)Nc2ccc3c(c2)OCO3)[C@@H]1OC(=O)Nc1ccc2c(c1)OCO2 and print it.
0.967

Name the recorded composite z-score of the molecule listed here: [N-]=[N+]=Nc1ccccc1C[C@]1(C(=O)NCCN2CCOCC2)COC(c2ccc(OCCCO)cc2)=N1
0.707

Note composite z-score for the molecule shown: CN(C)c1ccc(C(O)C2C=CC3C(=O)NC(=O)C3N2Nc2ccccn2)cc1 (configuration not stated)
1.05

Kindly indicate its recorded composite z-score. Item: O=C1OCCC=C[C@H]2OC34C=CCN(c5ccc6ccccc6c5)C(=O)[C@H]3N(CCCO)C(=O)[C@@H]4C12 (some centres not stated)
-1.44

Input O=C(c1ccccc1)N1C(=O)[C@]2(Cc3ccccc31)N=C(c1ccc(OCCCO)cc1)O[C@@H]2c1ccccc1 , output reported composite z-score.
0.357

Indicate the recorded composite z-score value for this molecule: COc1ccc([C@H]2OC[C@@H]3C[C@H](Cc4ccccc4)C(=O)N32)cc1
0.48

Consider the molecule C=CC[C@@H](OC(=O)Nc1ccc(SC)cc1)c1ccc(O)c(F)c1 and give its recorded composite z-score.
0.26
